The origin of these recorded values is patent US20080234262A1.

- test-system: PI3K (Homo sapiens)
- experimental-protocol: Fluorescence polarization assay for PI3K
- Assay type: biochemical
- particulars: PI3Kα; read-out: PI3Kα IC50
experimental-readout: IC50 (µM)

Some compounds with recorded IC50:
CNC(=O)Nc1ccc(-c2nc(N3CCOCC3)c3cnn(C4CCN(C(=O)C(C)C)CC4)c3n2)cc1 [Example 475]    0.148
c1cc2cc(-c3nc(N4CCOCC4)c4cnn(C5CCCCO5)c4n3)ccc2[nH]1 (centres unmarked) [Compound 928]    2.42
Nc1ccc(-c2nc(N3CCOCC3)c3cnn(C4CCN(C(=O)c5cccnc5)CC4)c3n2)nc1 [Compound 435]    4.04
CNC(=O)Nc1ccc(-c2nc(N3CCOCC3)c3cnn(C4CCN(C(=O)C(C)C)CC4)c3n2)cc1 [Compound 719]    0.148
CNC(=O)Nc1ccc(-c2nc(N3CCOCC3)c3cnn(C4CCN(Cc5ccccc5C)CC4)c3n2)cc1 [Compound 673]    0.05
O=C(Nc1ccncc1)Nc1ccc(-c2nc(N3CCOCC3)c3cnn(C4CCNCC4)c3n2)cc1 [Compound 780]    0.016
CNC(=O)Nc1ccc(-c2nc(N3CCOCC3)c3cnn(C4CCN(C(=O)N(C)C)CC4)c3n2)cc1 [Compound 717]    0.209
CNC(=O)Nc1ccc(-c2nc(N3CCOCC3)c3cnn(C4CCN(C(=O)COC)CC4)c3n2)cc1 [Example 474]    0.287
CNC(=O)Nc1ccc(-c2nc(N3CCOCC3)c3cnn(C4CCN(CC5OCCO5)CC4)c3n2)cc1 [Compound 797]    0.155
Cn1ncc2c(N3CCOCC3)nc(-c3ccoc3)nc21 [Compound 3]    0.915

A: CNC(=O)Nc1ccc(-c2nc(N3CCOCC3)c3cnn([C@H]4CCCN(C(=O)OC(C)(C)C)C4)c3n2)cc1 [Compound 872]
B: O=C(Nc1ccc(-c2nc(N3CCOCC3)c3cnn(C4CCN(Cc5ccccc5)CC4)c3n2)cc1)NN1CCCC1 [Compound 291]
Input line: In the pair A and B , the larger recorded IC50 belongs to which? Lab log: write the label of the selected item as the result.
Output line: B

----------
Listing: IC50 of selected compounds
- Test system: breast line MDA468
- experimental-protocol: In vitro cell culture growth assay (MTS), MDA468
- Format: cell-based, human
- particulars: Homo sapiens, 72 h, MDA468 cells, three days after drug treatment
Response body: numeric value in µM, unit text excluded.

Some compounds with recorded IC50:
O=C(Nc1ccc(-c2nc(N3CCOCC3)c3cnn(C4CCN(Cc5ccccc5)CC4)c3n2)cc1)NN1CCCC1 [Compound 537]    10
CCNC(=O)Nc1ccc(-c2nc(N3CCOCC3)c3cnn(C4CCN(Cc5ccccc5)CC4)c3n2)cc1F [Compound 596]    2.5
COC(=O)N1CCC(n2ncc3c(N4CCOCC4)nc(-c4ccc(NC(=O)Nc5ccccn5)cc4)nc32)CC1 [Compound 736]    17
C=CCONC(=O)Nc1ccc(-c2nc(N3CCOCC3)c3cnn(-c4ccccc4)c3n2)cc1 [Compound 542]    60
CC(C)(C)OC(=O)N1CCC[C@H](n2ncc3c(N4CCOCC4)nc(-c4ccc5[nH]ccc5c4)nc32)C1 [Compound 169]    12
COC(=O)N1CCC(n2ncc3c(N4CCOCC4)nc(-c4ccc(NC(=O)OCCN5CCOCC5)cc4)nc32)CC1 [Compound 906]    23
CN1CCC(NC(=O)Nc2ccc(-c3nc(N4CCOCC4)c4cnn(C5CCN(Cc6ccccc6)CC5)c4n3)cc2)CC1 [Compound 517]    1.2
COCCCNC(=O)Nc1ccc(-c2nc(N3CCOCC3)c3cnn(C4CCN(Cc5ccccc5)CC4)c3n2)cc1 [Compound 270]    3.2

Input line: // query IC50 value for entry CNC(=O)Nc1ccc(-c2nc(N3CCOCC3)c3cnn(C4CCC5(CC4)OCCO5)c3n2)cc1 [Example 321]
Output line: 0.1

Input line: // query IC50 value for entry CNC(=O)Nc1ccc(-c2nc(N3CCOCC3)c3cnn(C4CCN(C(=O)OCc5ccccc5)CC4)c3n2)cc1 [Compound 880]
Output line: 0.22

----------
- test-system: PI3K (Homo sapiens, UniProt P42336)
- Sequence (P42336 whole entry): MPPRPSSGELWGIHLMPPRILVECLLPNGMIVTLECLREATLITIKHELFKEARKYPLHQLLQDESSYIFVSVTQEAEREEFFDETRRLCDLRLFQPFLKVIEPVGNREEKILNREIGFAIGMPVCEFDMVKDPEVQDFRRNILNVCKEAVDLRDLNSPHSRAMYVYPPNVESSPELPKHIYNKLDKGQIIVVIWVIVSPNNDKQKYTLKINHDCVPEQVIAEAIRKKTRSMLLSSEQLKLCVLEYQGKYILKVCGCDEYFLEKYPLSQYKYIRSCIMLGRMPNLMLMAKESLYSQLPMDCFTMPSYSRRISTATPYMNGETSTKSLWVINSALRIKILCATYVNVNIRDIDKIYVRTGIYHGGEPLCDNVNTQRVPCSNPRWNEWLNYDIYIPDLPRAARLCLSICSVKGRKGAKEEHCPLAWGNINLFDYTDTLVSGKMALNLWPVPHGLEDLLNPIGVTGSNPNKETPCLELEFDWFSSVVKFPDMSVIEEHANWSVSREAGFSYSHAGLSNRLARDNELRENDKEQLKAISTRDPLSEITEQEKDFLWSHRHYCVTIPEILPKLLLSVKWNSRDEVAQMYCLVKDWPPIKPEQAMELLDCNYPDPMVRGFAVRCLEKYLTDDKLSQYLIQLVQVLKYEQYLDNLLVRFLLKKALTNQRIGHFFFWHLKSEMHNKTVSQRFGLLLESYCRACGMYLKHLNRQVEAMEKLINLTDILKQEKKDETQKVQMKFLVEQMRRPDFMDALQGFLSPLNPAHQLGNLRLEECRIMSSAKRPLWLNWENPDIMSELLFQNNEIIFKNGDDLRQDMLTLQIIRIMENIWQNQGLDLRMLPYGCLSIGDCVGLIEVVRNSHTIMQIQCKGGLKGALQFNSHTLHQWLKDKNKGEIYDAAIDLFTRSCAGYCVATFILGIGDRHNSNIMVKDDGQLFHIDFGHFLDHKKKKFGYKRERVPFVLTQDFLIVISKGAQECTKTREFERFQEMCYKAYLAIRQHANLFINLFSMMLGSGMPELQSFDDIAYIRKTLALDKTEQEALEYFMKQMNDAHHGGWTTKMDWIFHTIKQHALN
- Sequence (P27986 whole entry partner): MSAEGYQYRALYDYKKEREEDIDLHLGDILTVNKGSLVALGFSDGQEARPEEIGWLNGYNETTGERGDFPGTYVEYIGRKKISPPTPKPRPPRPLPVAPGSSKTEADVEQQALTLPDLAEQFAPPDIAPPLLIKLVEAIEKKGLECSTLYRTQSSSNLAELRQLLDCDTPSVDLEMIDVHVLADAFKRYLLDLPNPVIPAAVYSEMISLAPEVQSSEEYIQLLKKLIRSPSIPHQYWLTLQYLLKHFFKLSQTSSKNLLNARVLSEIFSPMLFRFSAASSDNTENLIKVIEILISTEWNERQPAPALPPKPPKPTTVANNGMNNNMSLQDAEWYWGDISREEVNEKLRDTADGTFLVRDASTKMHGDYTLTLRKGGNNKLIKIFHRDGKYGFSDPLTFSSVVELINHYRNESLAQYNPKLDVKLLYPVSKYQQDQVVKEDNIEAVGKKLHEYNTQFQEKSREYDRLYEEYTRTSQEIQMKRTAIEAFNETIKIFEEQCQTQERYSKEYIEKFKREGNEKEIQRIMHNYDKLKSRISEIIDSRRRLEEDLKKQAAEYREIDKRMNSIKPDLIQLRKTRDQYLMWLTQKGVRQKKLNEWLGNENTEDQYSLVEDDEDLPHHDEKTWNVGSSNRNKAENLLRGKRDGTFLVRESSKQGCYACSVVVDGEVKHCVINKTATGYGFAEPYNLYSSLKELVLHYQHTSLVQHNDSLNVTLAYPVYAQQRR
- experimental-protocol: Fluorescence polarization assay for PI3K
- Type: biochemical
- particulars: PI3Kα; read-out: PI3Kα IC50
pIC50: −log10 of the molar value.
experimental-readout: pIC50

Some molecules with recorded pIC50:
CC(=O)Nc1ccc(-c2nc(N3CCOCC3)c3cnn(Cc4ccccc4)c3n2)cc1    6.39
CNC(=O)Nc1ccc(-c2nc(N3CCOCC3)c3cnn(C4CCN(Cc5ccccc5C)CC4)c3n2)cc1 [Example 429]    7.29
CNC(=O)Nc1ccc(-c2nc(N3CCOCC3)c3cnn(C4CCN(Cc5ccccn5)CC4)c3n2)cc1 [Compound 575]    7.19
Nc1ccc(-c2nc(N3CCOCC3)c3cnn(C4CCN(Cc5cccnc5)CC4)c3n2)cn1    6.97

1: CNC(=O)Nc1ccc(-c2nc(N3CCOCC3)c3cnn(C4CCN(C(=O)c5cccc(C(C)=O)c5)CC4)c3n2)cc1 [Compound 667]
2: CNC(=O)Nc1ccc(-c2nc(N3CCOCC3)c3cnn(C4CCN(C(=O)c5cccc(Cl)c5)CC4)c3n2)cc1 [Example 358]
3: c1ccc(CN2CCC(n3ncc4c(N5CCOCC5)nc(-c5ccc6[nH]ccc6c5)nc43)CC2)nc1
Input line: Arrange these molecules by their pIC50, starting with the largest number. Hello, could you send the labels back in the order asked? Thank you.
Output line: 2, 1, 3

----------
- test-system: UniProt:P42336
- experimental-protocol: Fluorescence polarization assay for PI3K
- Type: biochemical
- particulars: PI3Kα; read-out: PI3Kα IC50
experimental-readout: IC50 (nM)

NNC(=O)Nc1ccc(-c2nc(N3CCOCC3)c3cnn(C4CCN(Cc5ccccc5)CC4)c3n2)cc1 [Example 309]    155

P: O=C(NCCO)Nc1ccc(-c2nc(N3CCOCC3)c3cnn(CC(F)(F)F)c3n2)cc1
Q: O=C(NCCCO)Nc1ccc(-c2nc(N3CCOCC3)c3cnn(C4CCN(Cc5ccccc5)CC4)c3n2)cc1 [Example 269]
Input line: In the pair P and Q , the larger recorded IC50 belongs to which? Lab log: write the label of the selected item as the result.
Output line: Q

I: O=C(Nc1ccc(-c2nc(N3CCOCC3)c3cnn(CC(F)(F)F)c3n2)cc1)Nc1cccnc1
II: CC(=O)Nc1ccc(-c2nc(N3CCOCC3)c3cnn(C4CCN(Cc5ccccc5)CC4)c3n2)cc1[N+](=O)[O-]
III: CNC(=O)Nc1ccc(-c2nc(N3CCOCC3)c3cnn(C4CCC(O)CC4)c3n2)cc1 (stereo not shown) [Example 323]
Input line: Please produce an ascending ranking of these molecules based on IC50. Hello, could you send the labels back in the order asked? Thank you.
Output line: I, III, II
(I: 10 nM, III: 39 nM, II: 3080 nM)

----------
- Test system: breast line MDA468
- experimental-protocol: In vitro cell culture growth assay (MTS), MDA468
- Format: cell-based, human
- particulars: Homo sapiens, 72 h, MDA468 cells, three days after drug treatment
experimental-readout: IC50 (µM)
Response body: numeric value in µM, unit text excluded.

CNCCNC(=O)Nc1ccc(-c2nc(N3CCOCC3)c3cnn(C4CCN(Cc5ccccc5)CC4)c3n2)cc1 [Example 300]    0.2
O=C(NO)Nc1ccc(-c2nc(N3CCOCC3)c3cnn(C4CCN(Cc5ccccc5)CC4)c3n2)cc1 [Compound 555]    1.1
Oc1ccc(-c2nc(N3CCOCC3)c3cnn(C4CCN(Cc5ccccc5)CC4)c3n2)cn1    40

Input line: // query IC50 value for entry CNC(=O)Nc1ccc(-c2nc(N3CCOCC3)c3cnn(C4CCN(C(=O)c5cccc(C(F)(F)F)c5)CC4)c3n2)cc1 [Example 359]
Output line: 0.2

Input line: // query IC50 value for entry `CC(=O)Nc1ccc(-c2nc(N3CCOCC3)c3cnn(-c4ccccc4)c3n2)cc1`
Output line: 60

Input line: // query IC50 value for entry O=C(NO)Nc1ccc(-c2nc(N3CCOCC3)c3cnn(C4CCN(C(=O)c5cccnc5)CC4)c3n2)cc1 [Compound 550]
Output line: 7.2

----------
- test-system: PI3K (Homo sapiens, UniProt P42336)
- experimental-protocol: Fluorescence polarization assay for PI3K;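 note: PI3K kinase reaction on PIP2 with ATP, 30-60 min, product sensed by GST-GRP with red probe in fluorescence polarization (mP), controls without enzyme and at zero time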
- Assay type: biochemical
- particulars: PI3Kα; read-out: PI3Kα IC50
experimental-readout: IC50 (nM)

Some compounds with recorded IC50:
O=C(Nc1ccccc1)Nc1ccc(-c2nc(N3CCOCC3)c3cnn(C4CCN(Cc5cccnc5)CC4)c3n2)cc1 [Compound 586]    11
COC(=O)Nc1ccc(-c2nc(N3CCOCC3)c3cnn(C4CCN(C(C)=O)CC4)c3n2)cc1    2100
O=C(NCCO)Nc1ccc(-c2nc(N3CCOCC3)c3cnn(C4CCN(C(=O)c5ccccc5)CC4)c3n2)cc1 [Compound 630]    229
O=C(Nc1ccncc1)Nc1ccc(-c2nc(N3CCOCC3)c3cnn(C4CCN(C(=O)c5ccccc5)CC4)c3n2)cc1 [Example 384]    19
CNC(=O)Nc1ccc(-c2nc(N3CCOCC3)c3cnn(C4CCN(Cc5cncc(Br)c5)CC4)c3n2)cc1 [Example 393]    72
c1ccc(CN2CCC(n3ncc4c(N5CCOCC5)nc(-c5ccc6ncccc6c5)nc43)CC2)cc1 [Compound 937]    466

I: CCOC(=O)N1CCC(n2ncc3c(N4CCOC[C@H]4C)nc(-c4ccc(NC(=O)Nc5ccccc5)cc4)nc32)CC1
II: COC(=O)N1CCC(n2ncc3c(N4CCOCC4)nc(-c4ccc(NC(=O)Nc5ccc(CCNCCO)cc5)cc4)nc32)CC1
III: O=C(CCO)Nc1ccc(-c2nc(N3CCOCC3)c3cnn(-c4ccccc4)c3n2)cc1
Input line: Arrange these compounds by their IC50, starting with the largest number. Hello, could you send the labels back in the order asked? Thank you.
Output line: I, III, II

1: CNC(=O)Nc1ccc(-c2nc(N3CCOCC3)c3cnn(C4CCN(C(=O)c5ccc[n+]([O-])c5)CC4)c3n2)cc1
2: CNC(=O)Nc1ccc(-c2nc(N3CCOCC3)c3cnn(C4CCN(Cc5ccccc5Cl)CC4)c3n2)cc1 [Compound 641]
3: c1ccc(CN2CCC(n3ncc4c(N5CCOCC5)nc(-c5cnc6ccccc6c5)nc43)CC2)cc1 [Compound 484]
Input line: Arrange these compounds by their IC50, starting with the largest number. Hello, could you send the labels back in the order asked? Thank you.
Output line: 3, 1, 2
